- measured.target: acetylcholinesterase (AChE) from Electrophorus electricus (Electrophorus electricus, UniProt O42275)
- Sequence (O42275 24-633): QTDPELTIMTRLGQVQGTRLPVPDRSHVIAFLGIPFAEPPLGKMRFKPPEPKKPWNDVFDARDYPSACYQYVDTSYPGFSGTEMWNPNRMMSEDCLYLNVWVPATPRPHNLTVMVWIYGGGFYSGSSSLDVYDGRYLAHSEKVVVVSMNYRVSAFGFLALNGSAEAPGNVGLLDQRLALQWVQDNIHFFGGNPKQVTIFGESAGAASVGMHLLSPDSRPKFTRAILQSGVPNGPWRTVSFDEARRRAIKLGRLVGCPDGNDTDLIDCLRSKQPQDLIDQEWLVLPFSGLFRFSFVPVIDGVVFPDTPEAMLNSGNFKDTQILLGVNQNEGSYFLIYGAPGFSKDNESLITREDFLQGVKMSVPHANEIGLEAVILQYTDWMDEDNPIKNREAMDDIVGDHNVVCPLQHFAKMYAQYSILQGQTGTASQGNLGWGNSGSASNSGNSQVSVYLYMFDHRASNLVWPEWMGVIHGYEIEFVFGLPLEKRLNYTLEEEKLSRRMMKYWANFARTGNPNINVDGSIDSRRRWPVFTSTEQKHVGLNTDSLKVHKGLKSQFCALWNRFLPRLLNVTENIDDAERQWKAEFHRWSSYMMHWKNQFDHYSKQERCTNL
metric.name: pIC50
// pIC50 here means minus log10 of the molar concentration (mol/L)

Summary for this molecule, CC12CCC(CC1)C(C)(C)O2 : pIC50 is 4.04
